Test system: Apelin receptor (Homo sapiens) (UniProt P35414)
Sequence (P35414 whole entry, looked up): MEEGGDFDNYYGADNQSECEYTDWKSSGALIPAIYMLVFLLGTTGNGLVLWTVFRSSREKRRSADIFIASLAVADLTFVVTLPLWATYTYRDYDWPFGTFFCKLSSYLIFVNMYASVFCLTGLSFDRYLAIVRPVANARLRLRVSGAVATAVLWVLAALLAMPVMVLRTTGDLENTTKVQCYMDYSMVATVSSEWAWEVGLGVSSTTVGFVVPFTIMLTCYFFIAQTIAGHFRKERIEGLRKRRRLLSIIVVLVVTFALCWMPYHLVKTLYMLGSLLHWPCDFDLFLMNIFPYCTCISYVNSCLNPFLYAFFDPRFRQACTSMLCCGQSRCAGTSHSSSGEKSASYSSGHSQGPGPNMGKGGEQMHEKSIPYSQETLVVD
Assay details: APJ antagonists blocking beta-arrestin recruitment, confirmation, cell-based, luminescence, single concentration, uHTS hits (AID 2766)
Settings: antagonist mode, at 20 µM, active compounds read high
The other results are listed elsewhere or left out.
The following compounds are shown together with reported inhibition values.
Numbers only; they are read as %.

Compound: COc1cc(/C=N\NC(=O)CNC(=O)c2cccc([N+](=O)[O-])c2)ccc1O
Units text: %
inhibition: 2.71

Compound: O=[N+]([O-])c1ccccc1S(=O)(=O)Nc1cccc2cccnc12
Units text: %
inhibition: 4.57

Compound: COc1cc(/C=C2/SC(=S)N(Cc3ccccc3)C2=O)cc(OC)c1O
Units text: %
inhibition: 94.7

Compound: Cc1cccc(-n2c(O)c(C=Nc3ccccc3N)c(=O)[nH]c2=O)c1
Units text: %
inhibition: 8.93

Compound: Cc1csc(NC(=S)Nc2cccc(Cl)c2)n1
Units text: %
inhibition: 55.8

Compound: S=C(NNC(=S)NC1CC2CCC1C2)NC1CC2C=CC1C2 (centres undefined)
Units text: %
inhibition: 49.1

Compound: O=C(CCl)NNc1cccc(Cl)n1
Units text: %
inhibition: 145

Compound: COc1cc(/C=C(\C#N)c2nc3c(s2)CC(C)CC3)ccc1O (centres undefined)
Units text: %
inhibition: 44.7

(Q) Data request, read-out inhibition, for `COC(=O)c1ccc(NCC(=O)c2ccccc2)cc1`
(A) 63.5

(Q) Data request, read-out inhibition, for COc1ccc(CS(=O)/C(Cl)=C(/Cl)C(=O)Nc2ccc(OC)nc2)cc1 (centres undefined)
(A) 100

(Q) Data request, read-out inhibition, for `O=c1ccc2c(-c3ccccc3S(=O)(=O)O)c3ccc(O)c(O)c3oc-2c1O`
(A) 69.9
